Values from patent US5789403A

# Assay system: NEP (neutral endpeptidase) (Rattus norvegicus)
# Sequence (P07861 1-750): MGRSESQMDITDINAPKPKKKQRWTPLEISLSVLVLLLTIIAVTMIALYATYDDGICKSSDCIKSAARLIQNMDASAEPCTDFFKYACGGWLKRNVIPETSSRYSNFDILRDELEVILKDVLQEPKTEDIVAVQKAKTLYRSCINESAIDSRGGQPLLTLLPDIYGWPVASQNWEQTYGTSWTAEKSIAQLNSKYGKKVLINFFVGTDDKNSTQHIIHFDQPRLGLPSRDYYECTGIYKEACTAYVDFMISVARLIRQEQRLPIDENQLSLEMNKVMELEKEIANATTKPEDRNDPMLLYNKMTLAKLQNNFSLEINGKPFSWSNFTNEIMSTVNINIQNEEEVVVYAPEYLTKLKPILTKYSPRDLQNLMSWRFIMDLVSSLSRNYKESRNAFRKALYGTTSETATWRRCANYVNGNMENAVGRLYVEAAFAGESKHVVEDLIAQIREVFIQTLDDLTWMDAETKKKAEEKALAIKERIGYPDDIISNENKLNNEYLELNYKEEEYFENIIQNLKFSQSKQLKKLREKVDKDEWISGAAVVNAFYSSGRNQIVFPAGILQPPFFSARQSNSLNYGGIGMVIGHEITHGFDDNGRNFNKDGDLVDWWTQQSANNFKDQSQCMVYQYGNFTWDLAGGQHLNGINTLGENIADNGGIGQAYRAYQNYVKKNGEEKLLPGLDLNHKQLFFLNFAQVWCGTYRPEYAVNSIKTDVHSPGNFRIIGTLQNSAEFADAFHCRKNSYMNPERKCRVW
Measure: IC50

Consider the molecule shown here: CC[C@H]1CC[C@H](NC(=O)[C@@H](S)[C@@H](C)CC)C(=O)N2[C@@H]1SC[C@H]2C(=O)O What is its recorded IC50? 1.5 nM
